- experimental target: Transforming protein RhoA/Rho-related GTP-binding protein RhoC (Homo sapiens, UniProt P61586+P08134)
- assay: Inhibition of RhoA/C-mediated transcriptional response in human PC3 cells by serum response factor-luciferase reporter gene assay
- Format: cell-based
- measurement setup: pc-3
Readings of IC50 for the listed molecules

Task item: GET /values?readout=IC50&item= O=C(CCNCc1cc(C(F)(F)F)cc(C(F)(F)F)c1)Nc1ccc(Cl)cc1
Reply: 8.1 µM

Task item: Given the molecule O=C(CCCCNC(=O)c1cc(C(F)(F)F)cc(C(F)(F)F)c1)Nc1ccc(Cl)cc1 , what is its reported IC50?
Reply: > 100 µM

Task item: State the recorded IC50 for this entry: O=C(NCc1csc(-c2ccc(Cl)cc2)n1)c1cc(C(F)(F)F)cc(C(F)(F)F)c1
Reply: 4.1 µM

Task item: Bench note: what IC50 did CN(C(=O)CCNC(=O)c1cc(C(F)(F)F)cc(C(F)(F)F)c1)c1ccc(Cl)cc1 show?
Reply: > 100 µM

Task item: Value lookup for IC50; key = O=C(CCNC(=O)c1cc(C(F)(F)F)cc(C(F)(F)F)c1)NCc1ccc(Cl)cc1
Reply: > 100 µM

Task item: What value of measured IC50 is listed for O=C(CONC(=O)c1ccc(C(F)(F)F)cc1)Nc1ccc(Cl)cc1 ?
Reply: 29 µM
